Molecular target: Bub1 (Homo sapiens)
Construct: catalytic domain of human Bub1 (amino acids 704-1085); His6 (N); made in house; host or cells: insect cells (Hi5)
Sequence (O43683 704-1085): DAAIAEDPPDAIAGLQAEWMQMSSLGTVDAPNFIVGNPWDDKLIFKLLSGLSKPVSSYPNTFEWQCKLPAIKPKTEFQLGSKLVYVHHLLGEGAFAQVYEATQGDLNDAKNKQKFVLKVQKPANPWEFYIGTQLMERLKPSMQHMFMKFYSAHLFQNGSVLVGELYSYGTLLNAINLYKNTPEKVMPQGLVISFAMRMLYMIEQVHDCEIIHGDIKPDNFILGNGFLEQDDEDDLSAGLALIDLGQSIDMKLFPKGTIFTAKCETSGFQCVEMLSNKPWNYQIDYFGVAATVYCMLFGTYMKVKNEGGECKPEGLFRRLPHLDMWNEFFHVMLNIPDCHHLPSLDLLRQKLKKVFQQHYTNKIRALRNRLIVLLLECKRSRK
Assay: Bub1 high ATP kinase assay (TR-FRET)
Type: biochemical
Conditions: Bub1 high ATP (2 mM) IC50, TR-FRET, 2 mM ATP; Table 3
Listed compounds paired with reported pIC50
On this scale, pIC50 is minus log10 of a concentration expressed in M (mol/L).

COMPOUND	SYSTEM_UNDER_TEST	VALUE_MEASURED
Cc1c(Cl)cccc1Nc1c(-c2ccncc2OCC2CCCCO2)[nH]c2c1C(=O)NCC2C (single isomer, unassigned)	Bub1 (Homo sapiens)	5.82

Read the next record carefully.
So, Cc1c(Cl)cccc1Nc1c(-c2ccncc2OC[C@@H]2CCCO2)[nH]c2c1C(=O)NCC2C (single isomer, unassigned) [Example 60] ? Its pIC50 was 5.79

====

Molecular target: Ba/F3-EGFR-WT cells (Homo sapiens)
Sequence (P00533 whole entry, looked up, change not shown): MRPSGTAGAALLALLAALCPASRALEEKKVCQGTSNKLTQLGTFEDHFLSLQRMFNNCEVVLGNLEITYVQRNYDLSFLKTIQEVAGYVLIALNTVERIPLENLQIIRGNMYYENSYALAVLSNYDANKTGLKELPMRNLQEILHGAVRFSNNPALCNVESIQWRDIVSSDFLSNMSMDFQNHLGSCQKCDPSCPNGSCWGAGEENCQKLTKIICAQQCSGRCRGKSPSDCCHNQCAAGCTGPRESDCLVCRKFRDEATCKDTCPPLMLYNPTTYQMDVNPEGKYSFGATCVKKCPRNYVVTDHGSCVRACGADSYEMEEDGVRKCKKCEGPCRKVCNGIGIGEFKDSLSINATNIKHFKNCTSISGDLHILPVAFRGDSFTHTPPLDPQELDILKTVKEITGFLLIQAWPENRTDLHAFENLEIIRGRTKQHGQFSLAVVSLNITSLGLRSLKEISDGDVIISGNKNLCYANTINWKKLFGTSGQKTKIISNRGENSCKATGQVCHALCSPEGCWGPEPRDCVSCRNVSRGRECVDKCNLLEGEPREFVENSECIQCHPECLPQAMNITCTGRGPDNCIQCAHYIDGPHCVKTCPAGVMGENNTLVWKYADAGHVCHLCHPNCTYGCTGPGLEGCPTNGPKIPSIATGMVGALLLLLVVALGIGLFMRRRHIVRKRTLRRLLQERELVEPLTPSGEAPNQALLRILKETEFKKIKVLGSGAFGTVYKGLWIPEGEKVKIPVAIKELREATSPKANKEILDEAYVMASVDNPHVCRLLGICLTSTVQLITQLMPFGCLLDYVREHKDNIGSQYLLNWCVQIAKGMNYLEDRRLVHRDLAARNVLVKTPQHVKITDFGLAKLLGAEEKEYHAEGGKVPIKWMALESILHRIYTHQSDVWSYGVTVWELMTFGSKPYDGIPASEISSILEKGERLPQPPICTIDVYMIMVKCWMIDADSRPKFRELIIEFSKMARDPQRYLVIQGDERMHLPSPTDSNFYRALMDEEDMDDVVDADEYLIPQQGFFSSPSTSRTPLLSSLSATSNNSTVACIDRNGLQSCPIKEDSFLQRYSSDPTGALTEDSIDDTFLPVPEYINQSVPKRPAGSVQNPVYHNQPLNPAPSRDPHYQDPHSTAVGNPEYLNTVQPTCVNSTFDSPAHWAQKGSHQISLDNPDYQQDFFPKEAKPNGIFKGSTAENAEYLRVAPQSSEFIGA
Test: Ba/F3 cell survival assay, wild type EGFR
Assay type: cell-based
Settings: Cell Titer-Glo, 48 h, with 10 ng/mL EGF; Table 4; read-out: BA/F3 (wild type) IC50
METRIC_NAME: GI50
# answer = value followed by unit

COMPOUND	GI50
Cc1c(Cl)cccc1Nc1c(-c2ccncc2OCC2COCCO2)[nH]c2c1C(=O)N[C@H](C)C2 (stereo partly shown)	869 nM
COc1c(Cl)cccc1Nc1c(-c2ccncc2OCC2COCCO2)[nH]c2c1C(=O)NC1(CCC1)C2 (stereo not shown) [Example 123]	604 nM
COc1c(Cl)cccc1Nc1c(-c2ccncc2OCC(C)(C)OC)[nH]c2c1C(=O)NCC2CCO (single isomer, unassigned) [Example 14]	262 nM

So the reported GI50 for `COc1c(Cl)cccc1Nc1c(-c2ccncc2OC[C@@H]2CCCO2)[nH]c2c1C(=O)NC1(CCC1)C2` , on Ba/F3-EGFR-WT cells (Homo sapiens), turned out to be 814 nM

Form field GI50 for item `COc1c(Cl)cccc1Nc1c(-c2ccncc2OC[C@@H]2CN(CC(F)F)CCO2)[nH]c2c1C(=O)N[C@H](C)C2` on Ba/F3-EGFR-WT cells (Homo sapiens): 719 nM

Tested on Ba/F3-EGFR-WT cells (Homo sapiens): COc1c(Cl)cccc1Nc1c(-c2ccncc2OCC(C)OC)[nH]c2c1C(=O)N[C@H](C)C2 (single isomer, unassigned) [Example 81] . Observed GI50: 583 nM

GI50 on Ba/F3-EGFR-WT cells (Homo sapiens) for COc1c(Cl)cccc1Nc1c(-c2ccncc2OC[C@@H]2COCCN2C)[nH]c2c1C(=O)NCC2CCF (single isomer, unassigned) [Example 89] is 425 nM

====

Biological target: Ba/F3-EGFR-D770_N771insSVD cells (Homo sapiens, UniProt P00533, DUP768-770, cells depend on it)
Sequence (P00533 with tags, fused parts or gaps DUP768-770): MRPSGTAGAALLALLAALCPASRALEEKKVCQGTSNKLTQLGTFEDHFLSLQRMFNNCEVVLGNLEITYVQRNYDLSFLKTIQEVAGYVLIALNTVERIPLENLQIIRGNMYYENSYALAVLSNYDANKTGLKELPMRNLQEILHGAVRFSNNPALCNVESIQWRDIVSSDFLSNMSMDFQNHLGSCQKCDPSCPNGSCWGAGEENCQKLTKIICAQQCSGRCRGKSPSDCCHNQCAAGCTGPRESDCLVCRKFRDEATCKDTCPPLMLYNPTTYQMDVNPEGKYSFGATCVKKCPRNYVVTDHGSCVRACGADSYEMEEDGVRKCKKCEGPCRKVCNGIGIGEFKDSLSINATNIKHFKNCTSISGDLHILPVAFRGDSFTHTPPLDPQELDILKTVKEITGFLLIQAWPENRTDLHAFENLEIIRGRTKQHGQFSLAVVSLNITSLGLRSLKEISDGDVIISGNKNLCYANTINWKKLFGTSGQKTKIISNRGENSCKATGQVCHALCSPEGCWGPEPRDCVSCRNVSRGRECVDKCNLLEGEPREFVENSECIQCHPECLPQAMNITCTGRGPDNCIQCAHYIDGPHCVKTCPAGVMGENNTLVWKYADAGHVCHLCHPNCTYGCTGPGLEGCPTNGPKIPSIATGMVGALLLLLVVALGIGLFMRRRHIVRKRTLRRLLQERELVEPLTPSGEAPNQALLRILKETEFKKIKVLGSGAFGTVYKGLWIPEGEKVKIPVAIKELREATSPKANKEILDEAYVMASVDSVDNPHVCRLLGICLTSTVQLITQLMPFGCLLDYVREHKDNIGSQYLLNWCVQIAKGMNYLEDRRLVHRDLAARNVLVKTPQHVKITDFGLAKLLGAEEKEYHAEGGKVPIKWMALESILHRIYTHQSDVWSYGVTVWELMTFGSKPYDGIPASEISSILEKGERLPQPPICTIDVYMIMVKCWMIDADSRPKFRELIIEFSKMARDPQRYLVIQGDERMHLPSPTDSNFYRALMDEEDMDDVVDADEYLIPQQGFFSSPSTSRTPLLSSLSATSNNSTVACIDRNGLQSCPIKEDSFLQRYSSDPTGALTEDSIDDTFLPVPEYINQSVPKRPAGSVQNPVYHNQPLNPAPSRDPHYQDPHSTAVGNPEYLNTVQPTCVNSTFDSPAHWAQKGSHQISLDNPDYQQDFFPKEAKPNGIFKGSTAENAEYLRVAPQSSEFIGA
Assay: Ba/F3 cell survival assay, EGFR D770_N771insSVD
Format: cell-based
Conditions: Cell Titer-Glo, 48 h, without IL-3; Table 4; read-out: BA/F3 (insSVD) IC50
METRIC_NAME: GI50 (nM)
Hi! Could you send only the number? It should be in nM, unit omitted.

Recorded GI50, per entry:
MOLECULE	METRIC_NAME	VALUE_MEASURED
C[C@@H]1Cc2[nH]c(-c3ccncc3OCC3COCCO3)c(Nc3cccc(F)c3CC(F)F)c2C(=O)N1 (some centres unmarked) [Example 108]	GI50	141
COc1c(Cl)cccc1Nc1c(-c2ccncc2OCC2(C)CCO2)[nH]c2c1C(=O)NCC2CCO (single isomer, unassigned) [Example 23]	GI50	920
COc1c(Cl)cccc1Nc1c(-c2ccncc2OCC2COCCO2)[nH]c2c1C(=O)N[C@H](C)C2 (mixture of isomers) [Example 24]	GI50	20.8
COc1c(Cl)cccc1Nc1c(-c2ccncc2OCCC(C)OC)[nH]c2c1C(=O)N[C@H](C)C2 (mixture of isomers) [Example 120]	GI50	31.1

Could you now consider this next molecule?
Lab note: measured GI50 of COc1c(Cl)cccc1Nc1c(-c2ccncc2OC[C@@H]2CCCO2)[nH]c2c1C(=O)NC1CCCC21 (stereo in doubt) [Example 55] was 75.1

====

Target: Ba/F3-EGFR-WT cells (Homo sapiens)
Assay: Ba/F3 cell survival assay, wild type EGFR
Assay type: cell-based
Conditions: Cell Titer-Glo, 48 h, with 10 ng/mL EGF; Table 4; read-out: BA/F3 (wild type) IC50
METRIC_NAME: log10 of GI50 (log10 of the value in nM)
Field: value | Transform: log10 | Quantity: GI50 | Unit: nM

Record summary for CCc1c(Cl)cccc1Nc1c(-c2ccncc2OC[C@@H]2CN(C)CCO2)[nH]c2c1C(=O)N[C@H](C)C2 [Example 91] : reported log10 of GI50 = 2.75

For record COc1c(Cl)cccc1Nc1c(-c2ccncc2OCC2COCCO2)[nH]c2c1C(=O)NCC2C (single isomer, unassigned) [Example 34] the listed log10 of GI50 is 2.63

Reported log10 of GI50 for Cc1c(Cl)cccc1Nc1c(-c2ccncc2OCC2CCCCO2)[nH]c2c1C(=O)NCC2C (single isomer, unassigned) [Example 119] was 3.11

For record COc1c(Cl)cccc1Nc1c(-c2ccncc2OC[C@@H]2COCCN2C)[nH]c2c1C(=O)N[C@H](C)C2 [Example 93] the listed log10 of GI50 is 2.40

Record summary for COc1c(Cl)cccc1Nc1c(-c2ccncc2OCC(C)(C)OC)[nH]c2c1C(=O)N[C@H](C)C2 [Example 1] : reported log10 of GI50 = 2.62

According to the records, this compound COc1c(Cl)cccc1Nc1c(-c2ccncc2OCC2(C)CCO2)[nH]c2c1C(=O)NCC2CCO (single isomer, unassigned) [Example 23] displays log10 of GI50 of 3.87

Looking up COC(C)(C)COc1cnccc1-c1[nH]c2c(c1Nc1cccc(F)c1CC(F)F)C(=O)N[C@H](C)C2 [Example 65] , I see its log10 of GI50 listed as 2.90

====

Molecular target: EGFR with insertion SVD between D770 and N771 (mutEGFR D770_N771insSVD) (Homo sapiens, UniProt P00533, DUP768-770)
Construct: amino acids R669 to A1210; made in house; host or cells: Sf9 insect cells (baculovirus)
Test: Exon20-Mutant-EGFR(D770_N771insSVD) kinase assay (TR-FRET)
Assay type: biochemical
Details: 2 mM ATP, Table 2
METRIC_NAME: mutEGFR (D770_N771insSVD) kinase assay IC50 (nM)
Answer with a number only, understood to be in nM.

Examples with their reported mutEGFR (D770_N771insSVD) kinase assay IC50 follow.
COMPOUND	VALUE_MEASURED
COc1c(Cl)cccc1Nc1c(-c2ccncc2OCC2COCCO2)[nH]c2c1C(=O)NC1(CCC1)C2 (single isomer, unassigned) [Example 125]	0.235
COc1c(F)cccc1Nc1c(-c2ccncc2OC[C@@H]2CCCO2)[nH]c2c1C(=O)NC(C)C2 (single isomer, unassigned) [Example 10]	0.0957
COc1c(Cl)cccc1Nc1c(-c2ccncc2OCC2COC(C)(C)CO2)[nH]c2c1C(=O)NCC2C (single isomer, unassigned) [Example 94]	0.631
CCc1c(Cl)cccc1Nc1c(-c2ccncc2OC[C@@H]2CN(C)CCO2)[nH]c2c1C(=O)N[C@H](C)C2	0.334
COc1c(Cl)cccc1Nc1c(-c2ccncc2OCC2OCCCC2(F)F)[nH]c2c1C(=O)N[C@H](C)C2 (single isomer, unassigned) [Example 75]	0.104

Input `COc1c(Cl)cccc1Nc1c(-c2ccncc2OCC(C)(C)OC)[nH]c2c1C(=O)N[C@H](C)C2` . Output mutEGFR (D770_N771insSVD) kinase assay IC50: 0.135

`Cc1c(Cl)cccc1Nc1c(-c2ccncc2OC[C@@H]2CCCO2)[nH]c2c1C(=O)N[C@H](C)C2` yielded mutEGFR (D770_N771insSVD) kinase assay IC50 of 0.162

So for COc1c(Cl)cccc1Nc1c(-c2ccncc2OC[C@@H]2CCCO2)[nH]c2c1C(=O)NCC2CCO (single isomer, unassigned) [Example 17] , the logged mutEGFR (D770_N771insSVD) kinase assay IC50 turned out to be 0.238

mutEGFR (D770_N771insSVD) kinase assay IC50 recorded for this compound, COc1c(Cl)cccc1Nc1c(-c2ccncc2OCC2CCCCO2)[nH]c2c1C(=O)NCC2C (single isomer, unassigned) [Example 45] , is 0.391

Recorded mutEGFR (D770_N771insSVD) kinase assay IC50 (compound Cc1c(Cl)cccc1Nc1c(-c2ccncc2OCC2CCCCO2)[nH]c2c1C(=O)NCC2C (single isomer, unassigned) [Example 118] ): 0.431

Looking up `CCc1c(Cl)cccc1Nc1c(-c2ccncc2OC[C@@H]2CCCO2)[nH]c2c1C(=O)N[C@H](C)C2` , I found its mutEGFR (D770_N771insSVD) kinase assay IC50 recorded as 0.526

Reported mutEGFR (D770_N771insSVD) kinase assay IC50 of `COc1c(Cl)cccc1Nc1c(-c2ccncc2OC[C@@H]2COCCO2)[nH]c2c1C(=O)NC1(CC1)C2` : 0.205

Reported mutEGFR (D770_N771insSVD) kinase assay IC50 ( COc1c(Cl)cccc1Nc1c(-c2ccncc2OCC2COCCO2)[nH]c2c1C(=O)NCC2C (single isomer, unassigned) [Example 36] ) = 0.331

Briefly, mutEGFR (D770_N771insSVD) kinase assay IC50 measured for COc1c(Cl)cccc1Nc1c(-c2ccncc2OCCC2CCCCO2)[nH]c2c1C(=O)NC1(CCC1)C2 (stereo not shown) : 1.06

Value of measured mutEGFR (D770_N771insSVD) kinase assay IC50 for the entry COc1c(Cl)cccc1Nc1c(-c2ccncc2OC[C@@H]2CCCO2)[nH]c2c1C(=O)NC(C(F)(F)F)C2 (single isomer, unassigned) [Example 39] : 18.8

mutEGFR (D770_N771insSVD) kinase assay IC50 reading for `COc1c(Cl)cccc1Nc1c(-c2ccncc2OC[C@@H]2CCCO2)[nH]c2c1C(=O)N[C@H]1CCC[C@@H]21` : 0.246

So for `COc1c(Cl)cccc1Nc1c(-c2ccncc2OC[C@@H]2CN(C)CCO2)[nH]c2c1C(=O)N[C@@H]1CCC[C@H]21` , the logged mutEGFR (D770_N771insSVD) kinase assay IC50 turned out to be 0.361

So for COCC(C)Oc1cnccc1-c1[nH]c2c(c1Nc1cccc(Cl)c1OC)C(=O)N[C@H](C)C2 (mixture of isomers) [Example 41] , the logged mutEGFR (D770_N771insSVD) kinase assay IC50 turned out to be 0.178

Reported mutEGFR (D770_N771insSVD) kinase assay IC50 of COc1c(Cl)cccc1Nc1c(-c2ccncc2OC[C@@H]2CCCO2)[nH]c2c1C(=O)NC(C)C2 (mixture of isomers) : 0.0854

So, COc1c(Cl)cccc1Nc1c(-c2ccncc2OCC2COC(C)(C)CO2)[nH]c2c1C(=O)N[C@H](C)C2 (mixture of isomers) [Example 77] ? Its mutEGFR (D770_N771insSVD) kinase assay IC50 was 0.15

Notebook: COc1c(Cl)cccc1Nc1c(-c2ccncc2OCC2OCCC2(F)F)[nH]c2c1C(=O)N[C@H](C)C2 (single isomer, unassigned) [Example 72] , mutEGFR (D770_N771insSVD) kinase assay IC50 read as 0.151

Reported mutEGFR (D770_N771insSVD) kinase assay IC50 ( COc1c(Cl)cccc1Nc1c(-c2ccncc2OCC2COC(C)(C)CO2)[nH]c2c1C(=O)N[C@H](C)C2 (single isomer, unassigned) [Example 78] ) = 0.26

Reference source: patent US20230064983A1
